Test system: Neuregulin-1 EGF-like domain
Assay: binders of neuregulin-1 EGF-like domain, primary screen, biochemical, small-molecule microarray, 635 nm fluorescence (AID 1081);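 further: binding of the protein to compounds printed on small-molecule microarray slides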
Settings: small-molecule microarray binding, higher = more signal
Listed next: entries and their corresponding composite z-score.
reported_endpoint: composite z-score

{"smiles_data": "C=CC[C@@]1(C(=O)N2CCCCC2)N=C(c2ccc(OCCCO)cc2)O[C@@H]1c1ccccc1", "study_target": "Neuregulin-1 EGF-like domain", "reported_endpoint": "composite z-score", "recorded_measurement": 1.19}
{"smiles_data": "C=CCNC(=O)[C@@H]1[C@H]2C(=O)O[C@H](c3ccccc3)[C@H](c3ccccc3)N2[C@H](c2ccc(OCCO)cc2)[C@@]12C(=O)N(C(=O)OCCOC)c1ccc(C#CC3=CCCCC3)cc12", "study_target": "Neuregulin-1 EGF-like domain", "reported_endpoint": "composite z-score", "recorded_measurement": 1.17}
{"smiles_data": "COC(=O)[C@@]1(Cc2ccc(OC)cc2)[C@H]2c3cc(C(=O)N4CCCC4)n(CCc4cc5ccccc5[nH]4)c3C[C@H]2CN1C(=O)c1ccccc1", "study_target": "Neuregulin-1 EGF-like domain", "reported_endpoint": "composite z-score", "recorded_measurement": 1.1}
{"smiles_data": "O=C1O[C@@H](c2ccccc2)[C@@H](c2ccccc2)N2[C@@H](c3ccccc3OCCO)[C@]3(C(=O)Nc4ccc(C#CCCO)cc43)[C@@H](C(=O)Nc3nc4ccccc4s3)[C@H]12", "study_target": "Neuregulin-1 EGF-like domain", "reported_endpoint": "composite z-score", "recorded_measurement": 1.3}
{"smiles_data": "CCOC(=O)[C@H]1C/C=C/C[C@H](C(=O)OCC)C(=O)O[C@H]2[C@@H](OC)O[C@H](CO)[C@@H](OC(=O)Nc3ccc(OC)cc3)[C@@H]2OC1=O", "study_target": "Neuregulin-1 EGF-like domain", "reported_endpoint": "composite z-score", "recorded_measurement": 0.94}
{"smiles_data": "O=c1cccc(-c2cccc(Cl)c2)o1", "study_target": "Neuregulin-1 EGF-like domain", "reported_endpoint": "composite z-score", "recorded_measurement": 0.409}
{"smiles_data": "CC(C)(C)OC(=O)CC[C@@]1(C(=O)O)N=C(c2ccc(OCCCO)cc2)O[C@@H]1c1ccccc1CN=[N+]=[N-]", "study_target": "Neuregulin-1 EGF-like domain", "reported_endpoint": "composite z-score", "recorded_measurement": 1.19}

====

Assay: basal HepG2 mitochondrial membrane potential changes, profiling panel, cell-based, JC-1 fluorescence, 24 h, 100 nL compound (AID 1167); further: test concentration not given here
Details: higher = more signal
reported_endpoint: z-score

{"compound": "O=C1NC(=O)C2C1C=CC(C(O)c1ccc(Br)cc1)N2Nc1ccccn1 (centres undefined)", "recorded_measurement": -0.169}
{"compound": "C=C(CCCC)C(=O)CC[C@@H](OC(=O)c1cccnc1)c1ccccc1OCCO", "recorded_measurement": 0.0547}
{"compound": "CCOc1cc(C(O)C2C=CC3C(=O)N(C)C(=O)C3N2N2CCCCC2)ccc1O (centres undefined)", "recorded_measurement": -0.788}
{"compound": "COc1cc(OC)c(C(O)C2C=CC3C(=O)N(c4ccccc4)C(=O)C3N2Nc2ccc(C#N)cc2)cc1Br (centres undefined)", "recorded_measurement": -1.66}
{"compound": "CC1CC/C=C\\[C@H]2OC34C=CCN(c5ccc6ccccc6c5)C(=O)[C@H]3N(C(CO)C(C)C)C(=O)[C@@H]4C2C(=O)O1 (some centres undefined)", "recorded_measurement": 0.356}
{"compound": "Cc1ccc(S[C@]2(C(=O)NCc3ccccc3)CC(=O)N(C(C)C)[C@@H]2c2ccc(CO)cc2I)cc1", "recorded_measurement": -0.0692}
{"compound": "O=C1C[C@]2(c3ccc([N+](=O)[O-])cc3)C(=O)N(Cc3ccccc3)c3cc(CO)ccc3[C@H]2N1CC12CC3CC(CC(C3)C1)C2", "recorded_measurement": -0.821}
{"compound": "CCN(CC)c1ccc(N2CC=CC34O[C@@H]5/C=C\\CCC(C)OC(=O)C5[C@H]3C(=O)N(CCO)[C@@H]4C2=O)cc1 (some centres undefined)", "recorded_measurement": 0.178}
{"compound": "CC(C)(C)OC(=O)CC[C@@]1(C(=O)O)N=C(c2ccc(OCCCO)cc2)O[C@@H]1c1ccccc1CN=[N+]=[N-]", "recorded_measurement": -0.0553}
{"compound": "C=CCOC(=O)[C@@H]1[C@H]2C(=O)O[C@H](c3ccccc3)[C@H](c3ccccc3)N2[C@H](c2ccc(OCCOC(=O)[C@H]3C[C@H]4C(=O)N[C@@H](CCCC[N+](C)(C)C)C(=O)N4[C@H]3c3ccc(O)cc3)cc2)[C@@]12C(=O)Nc1ccc(I)cc12", "recorded_measurement": -2.03}
{"compound": "CCOc1cc(C(O)C2C=CC3C(=O)N(C4CCCCC4)C(=O)C3N2Nc2ccc(OC)cc2)ccc1O (centres undefined)", "recorded_measurement": 0.551}
{"compound": "C[C@@H]1ON(c2ccc(C(=O)OC(C)(C)C)cc2)[C@H](c2ccc(Br)cc2)[C@H]1C(=O)N1C(=O)OC[C@H]1Cc1ccccc1", "recorded_measurement": 0.401}
{"compound": "C=C(/C(=C/C[C@@H](OC(=O)c1ccncc1)c1ccccc1OCCO)c1cc(C(=O)OC)ccc1OC)C(C)C", "recorded_measurement": 2.74}
{"compound": "COc1ccc([Si](C)(C)[C@H]2[C@H](CCn3cc([C@H](O)c4ccccc4)nn3)O[C@@]3(C(=O)N(Cc4cccc(N5C(=O)c6cccc7cccc5c67)c4)c4ccccc43)[C@@H]2C)cc1", "recorded_measurement": -0.411}

====

Assay: basal MM1S mitochondrial membrane potential changes, profiling panel, cell-based, JC-1 fluorescence, 24 h, 100 nL compound (AID 1170); further: test concentration not given here
Details: higher = more signal
Decision: z-score compared against -1; not below it gives y, below it gives n.

{"compound": "O=C1OCC=C[C@H]2OC34C=CCN(Cn5nnc6ccccc65)C(=O)[C@H]3N(CCCCCCO)C(=O)[C@@H]4[C@@H]12 (some centres undefined)", "class_label": "y"}
{"compound": "CCOC(=O)[C@@H]1[C@@H]2C(=O)N(CC)C(=O)[C@@H]2C[C@@H]1Sc1ccccc1", "class_label": "n"}
{"compound": "COc1cc(CO)cc(I)c1O[C@H]1C=C(C(=O)NCCO)C[C@@H](NCc2ccccc2F)[C@@H]1O", "class_label": "n"}
{"compound": "C[C@@H]1ON(c2ccc(C(=O)OC(C)(C)C)cc2)[C@H](c2ccc(Br)cc2)[C@H]1C(=O)N1C(=O)OC[C@H]1Cc1ccccc1", "class_label": "y"}
{"compound": "CN1C(=O)[C@@]2(CCS(=O)(=O)c3ccccc3)N=C(c3ccc(OCCCO)cc3)O[C@H]2c2ccccc21", "class_label": "y"}
{"compound": "C=C(C(=O)CC[C@H](OC(C)=O)c1cccc(OCCO)c1)C(C)C", "class_label": "y"}
{"compound": "C=CCOC(=O)[C@H]1[C@@H]2C(=O)O[C@@H](c3ccccc3)[C@@H](c3ccccc3)N2[C@@H](c2ccc(OCCOC(=O)[C@H]3C[C@H]4C(=O)N[C@@H](CCCC[N+](C)(C)C)C(=O)N4[C@H]3c3cccc(OCCO)c3)cc2)[C@]12C(=O)Nc1ccc(I)cc12", "class_label": "n"}
{"compound": "C=CCOC(=O)[C@H]1[C@@H]2C(=O)O[C@@H](c3ccccc3)[C@@H](c3ccccc3)N2[C@@H](c2ccc(OCCOC(=O)[C@H]3C[C@H]4C(=O)N[C@@H](Cc5ccccc5)C(=O)N4[C@H]3c3cccc(OCCO)c3)cc2)[C@]12C(=O)Nc1ccc(I)cc12", "class_label": "n"}
{"compound": "CON(C)C(=O)C=C1C[C@@H](c2cccc(Cl)c2)O[C@@H](c2cccc(Cl)c2)O1", "class_label": "n"}
{"compound": "COc1ccc(C(O)C2C=CC3C(=O)N(C)C(=O)C3N2N2CCCCC2)cc1 (centres undefined)", "class_label": "y"}
{"compound": "NCCCCCCNC(=O)[C@H]1C[C@H]2C(=O)N[C@@H](Cc3ccccc3)C(=O)N2[C@H]1c1ccc(O)cc1", "class_label": "y"}
{"compound": "O=C1NC(=O)C2C1C=CC(C(O)c1ccc(Br)cc1)N2Nc1ccccn1 (centres undefined)", "class_label": "y"}
{"compound": "COc1ccc([Si](C)(C)[C@H]2[C@H](CCn3cc([C@H](O)c4ccccc4)nn3)O[C@@]3(C(=O)N(Cc4ccc(N5CCOC5=O)cc4)c4ccccc43)[C@@H]2C)cc1", "class_label": "y"}
{"compound": "COc1cc2c(cc1OC)CN(C(=O)[C@H]1[C@@H]3C(=O)O[C@@H](c4ccccc4)[C@@H](c4ccccc4)N3[C@@H](c3ccc(OCCO)cc3)[C@]13C(=O)Nc1ccc(C#CC4(O)CCCCCC4)cc13)CC2", "class_label": "y"}
{"compound": "COc1cc(OC)c(C(O)C2C=CC3C(=O)N(c4ccccc4)C(=O)C3N2Nc2ccc(C#N)cc2)cc1Br (centres undefined)", "class_label": "y"}
{"compound": "COC(=O)[C@@]1(Cc2ccc(F)cc2)[C@H]2c3cc(C(=O)N4CCCC4)n(CCc4c[nH]c5ccc(OC)cc45)c3C[C@H]2CN1C(=O)c1ccccc1", "class_label": "n"}
{"compound": "CCCC[C@@H]1C[C@H]1[C@@H](NC(=O)c1ccccc1)c1ccc(Cl)cc1", "class_label": "n"}
{"compound": "C=C[C@@H](COC(C)=O)NS(=O)(=O)c1ccc(Br)cc1", "class_label": "y"}
{"compound": "COC(=O)[C@@]1(Cc2ccccc2)[C@H]2c3cc(C(=O)N4CCCC4)n(C[C@H](O)CO)c3C[C@H]2CN1C(=O)c1ccccc1", "class_label": "y"}
{"compound": "CN(C)CCCCNC(=O)[C@H]1C[C@H]2C(=O)N[C@@H](CCCCN(C)C)C(=O)N2[C@H]1c1cccc(OCCO)c1", "class_label": "y"}
{"compound": "O=C(CCCCCCC(=O)Nc1ccccc1)N/N=C/c1ccccc1", "class_label": "y"}
{"compound": "O=C1O[C@@H](c2ccccc2)[C@@H](c2ccccc2)N2[C@@H](c3ccccc3OCCO)[C@]3(C(=O)Nc4ccc(C#CC5=CCCCC5)cc43)[C@@H](C(=O)NC[C@H](O)c3ccccc3)[C@H]12", "class_label": "n"}
{"compound": "CC(C)C(O)C1C=CC2C(=O)N(C)C(=O)C2N1N(c1ccccc1)c1ccccc1 (centres undefined)", "class_label": "y"}
{"compound": "COc1ccc(C(O)C2C=CC3C(=O)N(Cc4ccccc4)C(=O)C3N2n2cnnc2)c2ccccc12 (centres undefined)", "class_label": "y"}
{"compound": "CC(=O)n1cc(C(O)C2C=CC3C(=O)N(Cc4ccccc4)C(=O)C3N2n2cnnc2)c2ccccc21 (centres undefined)", "class_label": "y"}
{"compound": "CCCCC(CC)C(O)C1C=CC2C(=O)N(c3ccccc3)C(=O)C2N1Nc1ccc([N+](=O)[O-])cc1 (centres undefined)", "class_label": "n"}
{"compound": "CCOC(=O)C1=C[C@@H](c2ccccc2)N(S(=O)(=O)c2ccc(C)cc2)[C@H]1c1cccc(Cl)c1", "class_label": "y"}
{"compound": "C=C(COC)/C(=C/C[C@@H](OC(=O)c1ccncc1)c1ccc(CO)o1)c1cnc2ccccc2c1", "class_label": "y"}
{"compound": "CC(C)NC(=O)[C@@]1(C)c2ccccc2C(=O)N(C(C)C)[C@H]1c1ccc(CO)cc1", "class_label": "y"}
